Just for reference, PubChem BioAssay (NCATS) is where these values come from.

# System: MCC-26
# protocol.description: qHTS assay to identify novel small-molecules to repurpose for Merkel cell carcinoma treatment (AID 1296009); also: nearly all actives have a fitted effect of over 60% in size
# test.context: MCC and control cell lines, CellTiter-Glo viability, 72 h; series mostly up to 46 µM
# From the text: MCC is a rare and aggressive neuroendocrine skin cancer with limited treatment options. Approximately 80% of MCCs have the Merkel cell polyomavirus (MCPyV) DNA integrated into the host genome (virus-positive: VP-MCC) and viral oncogenes drive oncogenesis. The remaining MCCs are virus-negative (VN-MCC) and are caused by UV mutagenesis. […] Using cell viability as a readout (CellTiter-Glo assay) we found both overlapping and distinct drugs that can be repurposed for the treatment of VP-MCC and VN-MCC. […]
Records with an inconclusive call do not appear. Active and inactive are the calls of the source. Calls follow the shape of the dose curve; as a rule, active = well fitted inhibition curve with a large enough effect; inconclusive = small, poorly fitted or top-dose-only effect; inactive = flat fitted curve, though single readings scatter.
The categories you may choose from are label 1 (active), label 0 (inactive)

Inquiry: # lookup: test call for `c1ccc2c(CN3CCNCC3)cccc2c1`
Reply text: label 0

Inquiry: Repeat with `O=[N+]([O-])c1ccc([As](=O)(O)O)cc1`
Reply text: label 0

Inquiry: Repeat with C[C@H]1CCCC=CC2C[C@H](O)C[C@@H]2[C@H](O)C=CC(=O)O1 (some centres undefined)
Reply text: label 0

Inquiry: Repeat with `Oc1ccc2c3c1O[C@H]1[C@@H](O)C=C[C@H]4[C@@H](C2)NCC[C@@]341`
Reply text: label 0

Inquiry: Repeat with `O=C(O)CNC(=O)c1c(O)c2ccccc2n(Cc2ccccc2)c1=O`
Reply text: label 0

Inquiry: Repeat with NC1CC1c1ccccc1 (centres undefined)
Reply text: label 0

Inquiry: Repeat with CC(C)(C)C(O)C(Oc1ccc(Cl)cc1)n1cncn1 (centres undefined)
Reply text: label 0

Inquiry: Repeat with `CN1CCN(c2ccc([N+](=O)[O-])c3no[n+]([O-])c23)CC1`
Reply text: label 0

Inquiry: Repeat with CN1[C@H]2CC(O)C[C@H]1[C@H]1O[C@H]12 (some centres undefined)
Reply text: label 0

Inquiry: Repeat with O=S(=O)(CC1CS1)c1ccc(Oc2ccccc2)cc1 (centres undefined)
Reply text: label 0

Inquiry: Repeat with `c1ccc(CCCN2CCN(CCOC(c3ccccc3)c3ccccc3)CC2)cc1`
Reply text: label 0

Inquiry: Repeat with `CC[N+]1(CCOC(=O)C(O)(c2ccccc2)c2ccccc2)CCCCC1`
Reply text: label 0

Inquiry: Repeat with CCOP(=O)(NC(C)C)Oc1ccc(SC)c(C)c1 (centres undefined)
Reply text: label 0

Inquiry: Repeat with `Nc1ccc(Sc2ccc(N)cc2)cc1`
Reply text: label 0

Inquiry: Repeat with `S=C(SSC(=S)N1CCCCC1)N1CCCCC1`
Reply text: label 1

Inquiry: Repeat with CCNC(=O)CC1N=C(c2ccc(Cl)cc2)c2cc(OC)ccc2-n2c(C)nnc21 (centres undefined)
Reply text: label 0

Inquiry: Repeat with CCCC[N+]1(C)[C@H]2CC(OC(=O)[C@H](CO)c3ccccc3)C[C@H]1[C@H]1O[C@H]12 (some centres undefined)
Reply text: label 0

Inquiry: Repeat with COc1ccc2c(c1)[C@]13CCCCC1C(C2)N(C)CC3 (some centres undefined)
Reply text: label 0

Inquiry: Repeat with `O=c1[nH]c2ccccc2n1C1CCN(Cc2ccc(-c3[nH]c4cc5ncnc5cc4nc3-c3ccccc3)cc2)CC1`
Reply text: label 0

Inquiry: Repeat with `COc1cc2cc(c1Cl)N(C)C(=O)C[C@H](OC(=O)C(C)C)[C@]1(C)O[C@H]1[C@H](C)[C@@H]1C[C@@](O)(NC(=O)O1)[C@H](OC)C=CC=C(C)C2`
Reply text: label 0

Inquiry: Repeat with `O=C(O)C(Cl)Cl`
Reply text: label 0

Inquiry: Repeat with `CCN(CC)C(=O)c1ccc(C2=CC3(CCNCC3)Oc3cccc(O)c32)cc1`
Reply text: label 0

Inquiry: Repeat with `O=S(=O)(O)C(F)(F)C(F)(F)C(F)(F)C(F)(F)F`
Reply text: label 0

Inquiry: Repeat with `C[C@@H]1CC[C@@]2(OC1)O[C@H]1C[C@H]3[C@@H]4CC=C5C[C@@H](O[C@@H]6O[C@H](CO)[C@@H](O[C@@H]7O[C@@H](C)[C@H](O)[C@@H](O)[C@@H]7O)[C@H](O)[C@@H]6O[C@@H]6O[C@@H](C)[C@H](O)[C@@H](O)[C@@H]6O)CC[C@]5(C)[C@@H]4CC[C@]3(C)[C@@H]1[C@H]2C`
Reply text: label 1

Inquiry: Repeat with `O=c1[nH]c2ccc(Cl)cc2c(N[C@@H]2CN3CCC2CC3)c1-c1nc2ccccc2[nH]1`
Reply text: label 1

Inquiry: Repeat with `CCOC(=O)c1c(C(C#N)=CN)c2ccc(Cl)c(Cl)c2n1C`
Reply text: label 0

Inquiry: Repeat with `C=C1C[C@H]2[C@H]3CCC(=O)[C@@]3(C)CC[C@@H]2[C@@]2(C)C=CC(=O)C=C12`
Reply text: label 0

Inquiry: Repeat with `CN[C@@H]1Cc2cccc3[nH]c(=O)n(c23)C1`
Reply text: label 0

Inquiry: Repeat with `C#C[C@]1(O)C=C[C@@H]2[C@@H]3CCC4=CC(=O)CC[C@@H]4[C@H]3CC[C@@]21CC`
Reply text: label 0

Inquiry: Repeat with `Nc1ccc(Cl)cc1`
Reply text: label 0

Inquiry: Repeat with `C[C@]12CC[C@@H]3[C@@H](CCC4=CC(=O)CC[C@@H]43)[C@@H]1CC[C@@H]2OC(=O)CCc1ccccc1`
Reply text: label 0

Inquiry: Repeat with `CC(C)(O)C(=O)Nc1ccc([N+](=O)[O-])c(C(F)(F)F)c1`
Reply text: label 0

Inquiry: Repeat with `CC(O)=C(C#N)C(=O)Nc1cc(Br)ccc1Br`
Reply text: label 0

Inquiry: Repeat with CC1(C)CC/C(=C/c2ccc(Cl)cc2)C1(O)Cn1cncn1 (centres undefined)
Reply text: label 0

Inquiry: Repeat with `O=[N+]([O-])c1c2ccccc2cc2ccccc12`
Reply text: label 0

Inquiry: Repeat with `CCCCCCCCc1ccc(O)cc1`
Reply text: label 0

Inquiry: Repeat with CC(Cc1ccc(O)cc1)NCC(O)c1cc(O)cc(O)c1 (centres undefined)
Reply text: label 0

Inquiry: Repeat with `O=C(Oc1ccc([N+](=O)[O-])cc1)N1CCN(Cc2cccc(Oc3ccccc3)c2)CC1`
Reply text: label 0

Inquiry: Repeat with `CC[C@@H]1[C@@H](C)O[C@@](O)([C@@H](C)[C@H](O)[C@H](C)[C@H]2OC(=O)C=CC=C[C@@H](C)[C@@H]([C@@H](C)[C@@H](O)[C@H](C)[C@@]3(O)C[C@H](O[C@H]4C[C@H](O)[C@H](O)[C@H](C)O4)[C@H](CC)[C@@H](C)O3)OC(=O)C=CC=C[C@@H]2C)C[C@H]1O[C@H]1C[C@H](O)[C@H](O)[C@H](C)O1`
Reply text: label 1
